test system: OVCAR-3 ovarian; assay: NCI-60 one-dose screen, 48 h (100 = growth as untreated, 0 = no growth, -100 = all killed); conditions: 10 µM unless noted
The panel holds about 83,000 compounds, 20% with a hit somewhere; the sample as a whole holds those more often.
API: label(entry) gives Criterion met if the entry's growth is strictly smaller than 40%; on equality or larger values it gives Criterion not met.

Qu. Lab note: growth threshold 40%. Does this compound come in strictly under it? O=C(Nc1ccc(Cl)cc1)C1=NCCCCN1
Ans. Criterion not met

Qu. Problem: For the compound CCC(C)C(N)C(=O)NC(CC(C)C)C(=O)N1CCCC1C(=O)NC(Cc1c[nH]c2ccccc12)C(=O)NC(CCCCN)C(=O)NC(Cc1c[nH]c2ccccc12)C(=O)N1CCCC1C(=O)NC(Cc1c[nH]c2ccccc12)C(=O)NC(Cc1c[nH]c2ccccc12)C(=O)N1CCCC1C(=O)NC(Cc1c[nH]c2ccccc12)C(=O)NC(CCCNC(=N)N)C(=O)NC(CCCNC(=N)N)C(N)=O (configuration not stated) , is growth under 40%?
Ans. Criterion not met

Qu. Does the reported growth of the following compound sit strictly below 40%? CCOC(=O)c1c(NC(=S)Nc2ccc([N+](=O)[O-])cc2)sc2c1CCCCC2
Ans. Criterion not met
